Experiment: Enterohepatic recirculation study: oral PK without and with activated charcoal
Assay type: in vivo, mouse
Settings: mouse, plasma, po, 5 mg/kg, mice, 5 mg/kg oral, activated charcoal by gavage 1 hour after dosing; read-out: Plasma t1/2 (converted)
Quantity Name: half-life (h)
Output spec: scalar in h, unitless text.

[Q] Item under review: O=C(NC1CC1CCCCc1ccccc1)C1CCC(O)CC1 (stereo not shown) [Compound 8015-P2] . Reported half-life?
[A] 1.21

* * *

Experiment: Parallel artificial membrane permeability
Format: in vitro ADME
Conditions: PAMPA; read-out: Parallel artificial membrane permeability (Pe, nm/s)
Quantity Name: Papp (×10⁻⁶ cm/s)
Numeric only. Scale: ×10⁻⁶ cm/s

[Q] What value of Papp has been recorded for this entry: O=C(NC1CC1CCCCc1ccccc1)C1CCC(O)CC1 (racemic) [Compound 8015]
[A] 8.68
